# system_tested: DRD2 F1103.28A (Homo sapiens, UniProt P14416, F110A)
# Sequence (P14416 whole entry F110A): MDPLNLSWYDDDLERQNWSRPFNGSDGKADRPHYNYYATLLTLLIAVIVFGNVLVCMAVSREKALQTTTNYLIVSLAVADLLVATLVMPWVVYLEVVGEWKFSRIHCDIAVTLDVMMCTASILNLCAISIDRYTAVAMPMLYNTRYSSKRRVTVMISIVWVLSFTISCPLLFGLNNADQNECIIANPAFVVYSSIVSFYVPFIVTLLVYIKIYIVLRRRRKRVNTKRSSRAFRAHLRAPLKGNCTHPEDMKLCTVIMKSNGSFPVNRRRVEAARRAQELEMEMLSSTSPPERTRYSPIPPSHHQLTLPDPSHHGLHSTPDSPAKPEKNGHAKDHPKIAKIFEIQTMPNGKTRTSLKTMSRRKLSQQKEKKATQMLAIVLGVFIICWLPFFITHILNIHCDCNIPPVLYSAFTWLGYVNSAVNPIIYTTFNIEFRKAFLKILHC
# method_description: Gαi/o-mediated cAMP inhibition (GloSensor), mutant
# Format: cell-based
# Set-up: expressed in transfected cells; host or cells: HEK293T (ATCC CRL-11268)
Quick list: EC50 per entry.

compound | EC50
CCOc1cccc2cc([C@H](C)NCC3(O)CCCCC3)oc12 [O4SE6] | > 10 µM
CCOc1cccc2cc(C(C)NCC3(O)CCCCCC3)oc12 (stereo not drawn) [O4LE7] | > 10 µM
CCOc1cccc2cc(C(C)NCC3(O)CCC3)oc12.Cl (stereo not drawn) [O4LE4] | > 10 µM

---

# system_tested: DRD3 F1063.28A (Homo sapiens, UniProt P35462, F106A)
# Sequence (P35462 whole entry F106A): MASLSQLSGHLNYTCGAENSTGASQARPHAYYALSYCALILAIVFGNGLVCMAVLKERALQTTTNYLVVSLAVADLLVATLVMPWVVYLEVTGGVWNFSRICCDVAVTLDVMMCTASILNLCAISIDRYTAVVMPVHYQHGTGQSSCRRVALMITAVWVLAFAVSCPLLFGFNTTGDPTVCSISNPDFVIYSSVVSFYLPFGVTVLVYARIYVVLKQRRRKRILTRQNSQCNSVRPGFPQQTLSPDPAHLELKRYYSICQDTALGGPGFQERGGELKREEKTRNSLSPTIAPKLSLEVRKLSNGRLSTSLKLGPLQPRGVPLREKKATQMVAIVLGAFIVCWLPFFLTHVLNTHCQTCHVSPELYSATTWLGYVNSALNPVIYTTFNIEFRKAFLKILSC
# method_description: biochemical
# Format: binding
Field: label. Allowed values: rule met (Ki < 500 nM) or rule not met (Ki >= 500 nM).

compound | system_tested | group_label
CCOc1cccc2cc(C(C)NCC3(O)CCCCC3)oc12 (stereo not drawn) | DRD3 F1063.28A (Homo sapiens, UniProt P35462, F106A) | rule met
CCOc1cccc2cc(C(C)NCC3(O)CCCCCC3)oc12 (stereo not drawn) | DRD3 F1063.28A (Homo sapiens, UniProt P35462, F106A) | rule met
OC1(c2ccc(Cl)cc2)CCN(Cc2c[nH]c3ccccc23)CC1 | DRD3 F1063.28A (Homo sapiens, UniProt P35462, F106A) | rule met
CCOc1cccc2cc(C(C)NCC3(O)CCCCCCC3)oc12 (stereo not drawn) | DRD3 F1063.28A (Homo sapiens, UniProt P35462, F106A) | rule met
CCOc1cccc2cc([C@H](C)NCC3(O)CCCCC3)oc12 | DRD3 F1063.28A (Homo sapiens, UniProt P35462, F106A) | rule not met
CCOc1cccc2cc([C@@H](C)NCC3(O)CCCCC3)oc12 | DRD3 F1063.28A (Homo sapiens, UniProt P35462, F106A) | rule not met

---

# system_tested: DRD3 wild-type (Homo sapiens, UniProt P35462)
# Sequence (P35462 whole entry): as the sequence (P35462 whole entry F106A) above, with A106F counted along it
# method_description: Radioligand competition binding, [3H]-N-methylspiperone
# measurement_context: DRD3; [3H]-methylspiperone (0.8-1.0 nM); read-out: Ki
pKi: −log10 of the molar value.
measured_parameter: pKi

compound | limit_sign | value_reported
CCCCOc1cccc2cc(C(C)NCC3(O)CCCCC3)oc12.Cl (stereo not shown) [O6LE6] | = | 6.07
CCOc1cccc2cc(C(C)NCC3(O)CCCC3)oc12.Cl (racemic) [O4LE5] | = | 5.99
COc1cccc2cc(C(C)NCC3(O)CCCCC3)oc12.Cl (stereo not shown) [O3LE6] | = | 5.97
CCOc1cccc2cc(C(C)NCC3(O)CCC3)oc12.Cl (stereo not shown) [O4LE4] | = | 5.39
CCOc1cccc2cc(C(C)NCCO)oc12 (stereo not shown) [O4LE1] | < | 5.00
CCOc1cccc2cc(C(C)NCC(C)(C)O)oc12 (racemic) [O4LE2] | < | 5.00
CCOc1cccc2cc([C@H](C)NCC3(O)CCCCC3)oc12 [O4SE6] | = | 6.09
CC(NCC1(O)CCCCC1)c1cc2cccc(O)c2o1.Cl (stereo not shown) [O2LE6] | = | 5.46
CC(NCC1(O)CCCCC1)c1cc2ccccc2o1.Cl (stereo not shown) [O1LE6] | = | 6.12
CCOc1cccc2cc(C(C)NCc3ccccc3)oc12.Cl (stereo not shown) [O4LE9] | = | 5.23
CCOc1cccc2cc(C(C)NCC3(O)CCCCCC3)oc12 (stereo not shown) [O4LE7] | = | 6.62
CCOc1cccc2cc(C(C)NCC3(O)CC3)oc12.Cl (racemic) [O4LE3] | = | 5.36
CCCOc1cccc2cc(C(C)NCC3(O)CCCCC3)oc12.Cl (stereo not shown) [O5LE6] | = | 6.41

---

Quick list: pEC50 per entry.
# system_tested: DRD2 F1103.28A (Homo sapiens, UniProt P14416, F110A)
# method_description: Gαi/o-mediated cAMP inhibition (GloSensor), mutant
# Assay type: cell-based
# Parameters: expressed in transfected cells; host or cells: HEK293T (ATCC CRL-11268)
pEC50: −log10 of the molar value.

compound | pEC50
CCOc1cccc2cc(C(C)NCC3(O)CCCCC3)oc12 (centres unmarked) [O4LE6] | < 5.00
CCOc1cccc2cc(C(C)NCC3(O)CCCC3)oc12.Cl (racemic) [O4LE5] | 10.30
CCOc1cccc2cc(C(C)NCC3(O)CCCCCCC3)oc12 (centres unmarked) [O4LE8] | < 5.00
CCOc1cccc2cc(C(C)NCC3(O)CC3)oc12.Cl (racemic) [O4LE3] | < 5.00
CCOc1cccc2cc([C@@H](C)NCC3(O)CCCCC3)oc12 [O4RE6] | < 5.00

---

# system_tested: DRD2 (D2 long receptor) (Homo sapiens)
# Sequence (P14416 whole entry): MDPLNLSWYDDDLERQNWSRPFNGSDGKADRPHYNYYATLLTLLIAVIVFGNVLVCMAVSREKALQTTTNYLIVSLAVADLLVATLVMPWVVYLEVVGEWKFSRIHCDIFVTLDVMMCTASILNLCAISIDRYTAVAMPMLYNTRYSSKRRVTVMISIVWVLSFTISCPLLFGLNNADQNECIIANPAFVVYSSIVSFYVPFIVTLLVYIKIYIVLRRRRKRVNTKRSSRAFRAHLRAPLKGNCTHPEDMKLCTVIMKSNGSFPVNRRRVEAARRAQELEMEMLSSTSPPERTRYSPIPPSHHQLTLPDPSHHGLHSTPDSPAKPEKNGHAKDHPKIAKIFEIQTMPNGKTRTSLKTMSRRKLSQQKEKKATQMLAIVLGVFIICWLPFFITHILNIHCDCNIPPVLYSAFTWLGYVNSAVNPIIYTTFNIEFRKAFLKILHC
# method_description: β-arrestin2 recruitment (Tango), HTLA cells
# Type: cell-based
# measurement_context: HTLA, read-out: Emax relative to quinpirole response; DRD2; Tango
Quick list: Emax per entry.

compound | unit_name | Emax
CCOc1cccc2cc([C@H](C)NCC3(O)CCCCC3)oc12 | % | 71.3
CCOc1cccc2cc(C(C)NCC3(O)CCCCCCC3)oc12 (centres unmarked) | % | 54
CCOc1cccc2cc(C(C)NCC3(O)CCCCCC3)oc12 (centres unmarked) | % | 71.8
CCOc1cccc2cc([C@@H](C)NCC3(O)CCCCC3)oc12 | % | 99.6
CCOc1cccc2cc(C(C)NCC3(O)CCCCC3)oc12 (centres unmarked) | % | 105

---

# system_tested: DRD3 F1063.28A (Homo sapiens, UniProt P35462, F106A)
# method_description: cell-based
# Assay type: cell-based
# measurement_context: DRD3 F1063.28A; Tango; read-out: EC50 ± SEM
pEC50: −log10 of the molar value.
Quick list: pEC50 per entry.

compound | system_tested | pEC50
CCOc1cccc2cc(C(C)NCC3(O)CCC3)oc12.Cl (stereo not drawn) [O4LE4] | DRD3 F1063.28A (Homo sapiens, UniProt P35462, F106A) | < 5.00
CCOc1cccc2cc(C(C)NCC3(O)CCCC3)oc12.Cl (racemic) [O4LE5] | DRD3 F1063.28A (Homo sapiens, UniProt P35462, F106A) | < 5.00
CCOc1cccc2cc(C(C)NCC3(O)CC3)oc12.Cl (racemic) [O4LE3] | DRD3 F1063.28A (Homo sapiens, UniProt P35462, F106A) | < 5.00

---

# system_tested: DRD3 (Homo sapiens)
# Sequence (P35462 whole entry): as the sequence (P35462 whole entry F106A) above, with A106F counted along it
# method_description: β-arrestin2 recruitment (Tango)
# Assay type: cell-based
# measurement_context: read-out: Emax relative to quinpirole response; DRD3; Tango
Quick list: Emax per entry.
measured_parameter: Emax

molecule | value_reported
CCOc1cccc2cc(C(C)NCC3(O)CCCCCCC3)oc12 (stereo not shown) | 12.6%
CCOc1cccc2cc(C(C)NCC3(O)CCCCC3)oc12 (stereo not shown) | 15.8%
CCOc1cccc2cc(C(C)NCC3(O)CCCCCC3)oc12 (stereo not shown) | 32.3%
CCOc1cccc2cc([C@@H](C)NCC3(O)CCCCC3)oc12 | 21.4%

---

# system_tested: DRD2 (D2 long receptor) (Homo sapiens)
# method_description: β-arrestin2 recruitment (Tango), HTLA cells
# Assay type: cell-based
pEC50: −log10 of the molar value.
measured_parameter: pEC50

compound | system_tested | value_reported
CC(CCc1ccccc1[N+](=O)[O-])NCC1(O)CCCCC1 (stereo not shown) | DRD2 (D2 long receptor) (Homo sapiens) | 8.16

---

Quick list: Ki per entry.
# system_tested: DRD2 F1103.28A (Homo sapiens, UniProt P14416, F110A)
# Assay type: binding
# Parameters: expressed in transfected cells; host or cells: HEK293T (ATCC CRL-11268)
# measurement_context: DRD2 F1103.28A; read-out: Ki

compound | Ki
CCOc1cccc2cc(C(C)NCCO)oc12 (stereo not drawn) | > 10 µM
CC(NCC1(O)CCCCC1)c1cc2ccccc2o1.Cl (stereo not drawn) | > 10 µM
CCOc1cccc2cc(C(C)NCC3(O)CCC3)oc12.Cl (stereo not drawn) | > 10 µM

---

# system_tested: DRD2 F1103.28L (Homo sapiens, UniProt P14416, F110L)
# Construct: expressed in transfected cells; host or cells: HEK293T (ATCC CRL-11268)
# Sequence (P14416 whole entry F110L): as the sequence (P14416 whole entry F110A) above, with A110L counted along it
# method_description: β-arrestin2 recruitment (Tango), mutant
# Type: cell-based
pEC50: −log10 of the molar value.
measured_parameter: pEC50

molecule | measured_parameter | value_reported
CCOc1cccc2cc(C(C)NCC3(O)CC3)oc12.Cl (racemic) [O4LE3] | pEC50 | < 5.00
CCOc1cccc2cc(C(C)NCC3(O)CCCC3)oc12.Cl (racemic) [O4LE5] | pEC50 | < 5.00
CCOc1cccc2cc([C@H](C)NCC3(O)CCCCC3)oc12 [O4SE6] | pEC50 | < 5.00
CCOc1cccc2cc(C(C)NCC3(O)CCC3)oc12.Cl (stereo not shown) [O4LE4] | pEC50 | < 5.00
